experiment: soluble on expression in E. coli; label from the status in PepcDB or PDB records
measurementLabel: soluble on expression in E. coli

MNQGERNAVSLLKDKLFNEEGKPVNLIFCYTILQMKVAERIMAQHPGERFYVVLMSENRNEKYDYYFNQIKDKAERAYFFYLPYGLNKSFNFIPTMAELKVKSMLLPKVKRIYLASLEKVSIAAFLSTYPDAEIKTFDDGTNNLIRESSYLGGEFAVNGAIKRNFARMMVGDWSIAKTRNASDEHYTIFKGLKNIMDDGRRKMTYLPLFDASELKAGDETGGTVRILLGSPDKEMKEISEKAAKNFNIQYVAPHPRQTYGLSGVTALNSPYVIEDYILREIKKNPHTRYEIYTFFSGAALTMKDFPNVHVYALKPASLPEDYWLKPVYALFRQADIPILAFDDKLEHHHHHH    not soluble
GTTKISVPVPPPDANFPPSAAPVFYNPEMELNRDINVAATAAFVERLLSKKDILREEIRYVDAFSASGIRGLRIAGEVGIHSTMNDWSHEAFELIKENIKINGLEEKAQATRRNANVLLHEQRFHIVDVDPFGTPSPYLDAAASSAYSMLSVTATDTAPLCGAHLNSGIRKYASVPLNTEYHSEMGLRVLLGACARELAKHEKGMLPLLSHVTRHYVRTYLEVLPGSRKADKTLKSMGFVAHCPRCGFRKPVYGLAVHIEKECPECGGLTKIAGPLWLGPYREPEFCNEVISELEAHPLNTKEKVRKIITFCRDELDIPMFYDQHVICKELGASATGIESLIEALRAGGFEASRTHFTGTSFKTDAPIAEIKKIILALSG    not soluble

* * *

test: soluble on expression in E. coli; label from the status in PepcDB or PDB records
measurementLabel: soluble on expression in E. coli

MGEHKQNLSLQDMTHSDTGQIAYLKKVCTDDLAKNFPDLPPMTPGITVWALFGETGYPIILSDERSIALAGANEHELQIVTLH    not soluble
MKTFKAVRFQIVNEHGRIIEYELEDGVIINKEESGTGWLLEIVISNEHYETFKEYQDNEQLLDIRVVITRPANDPALFESTVKSIKNFKTTMSIVFECHIYTLRQQYAESLLEQLIDDGLSGEELKKSFNRMMQSKPKLKDEKLEE    not soluble
MGSDKIHHHHHHMSIAHQNAHTIIRDILSKQHIERVWFVGCGGSLTGFWPGKYFLDCEAKKLAVGYVTSNEFVHATPNALGKNSVVILASQQGNTAETVEAARIARQKGAATIGLVYTPGTPLCEHSDYTIKYCWARYPETVDPTQQKAAYSLWLALEVLAQTEGYAHYDEMVSAFASFESVVRGAQQQVQADARHFAEAWKTEKVIYMMGSGPSFGAAHQESICILLEMQWINSASIHSGEYFHGPFEITETGTPFILLKSSGRTRPLDDRAIRFIERYQGKLQIIDVEKVGINALHASVREYFCGLLHNCVLDVYNLALATARNHPLTTRRYMWKVEY    not soluble

* * *

experiment: soluble on expression in E. coli; label from the status in PepcDB or PDB records
measurementLabel: soluble on expression in E. coli

SDRFTSQSSFVVRSPKSQSSLNGLGAILQGTGFARAQDDIYTVGEYMRSRSSLDELRKILPVREFYETKGDAFSRFNGFGFRGEEEAFYQYYKNQ    not soluble
MKKHGVLNSEIAAVLASLGHTDTVVIADCGLPIPDGVKRIDLAVEIGKPSFLEVLQVVADDMAIEKVTLAEEVIINNAEVNKEIERKLIEPAFEYVSHEQFKEHTKKAKAIIRTGEATPYANVILHAGVIF    not soluble
MGSDKIHHHHHHMTINFNRIYVIQSLSKANGDELTGQQLFDDVLQYFNTKYGDKDARIFNVDNKKELLHALENIKSHCETDGIKPIIHFEIHGLEDKTGLSLNQEDVNWGDIYVKFIEINAASKWNLFITMGVCFGNYSMLLIRPSLPAPFTGILGSFEELFEWDLYIRYNAFYQELLNSLDFEKALEALHDSNPALPDDYRYINSEQTFKNVYQKYFDTQFSDVKIKERFNLTIAEEKISFTNRNIKRQFYSKFRTNLLNTKKEFFIKDKRKFFMFDVFPGHQYIYCVNWEPNYH    not soluble

* * *

experiment: soluble on expression in E. coli; label from the status in PepcDB or PDB records
measurementLabel: soluble on expression in E. coli

MPVSSRRCGMITRREAERLCKSFLGDNTPPRLPDDFAFNVQHKCAWGCRGSFLPSRYNSSRAKCIKCSYCGMFFSPNKFIFHSHRITTNDRYVQPDAANFNSWRRHMSLSGNDYDEKIIHAWEDVKAMFNGGTRKRLVGSSINPRSPGSPTQSTAVSSGVGSSSCGSPTSFERDTNEVDGKSGSSLPQRSQIDSQYNYGTVAAAAAVVGVTAVAAATELCSGLHVAAEGPTLSAALRKKNPLEHHHHHH    not soluble
MLISIESKEHYRILCIDGGSTDQTIPMIERLQRELKHISLIQLQNASIATCINKGLMDIKMTDPHDSDAFMVINPTSIVLPGKLDRLTAAFKNNDNIDMVIGQRAYNYHGEWKLKSADEFIKDNRIVTLTEQPDLLSMMSFDGKLFSAKFAELQCDETLANTYNHAILVKAMQKATDIHLVSQMIVGDNDIDTHATSNDEDFNRYIIEIMKIRQRVMEMLLLPEQRLLYSDMVDRILFNNSLKYYMNEHPAVTHTTIQLVKDYIMSMQHSDYVSQNMFDIINTVEFIGENWDREIYELWRQTLIQVGINRPTYKKFLIQLKGRKFAHRTKSMLKRLEHHHHHH    not soluble
MGSDKIHHHHHHMNAHTNSQANTNVTNVVFRTHTQPDEAASKKAGRPIFTDIEVCDITFPANRQTRATFPAHDAEPNATRESMANGGGVMTYAQVYNAQYLAYKSGVAQPMGGTPLSEAPFLTESKRRELKALNVHTVEALASLDGMPLKQLGMGGRELKNQAVAYIDNAAGSADVTNLAAQVAILTQQLAEERRMREEFTNAALARRERIKAGEEIEDDEQPEDDEPAELEPEPDDFEPVLPPTFAEIDAMDDEALKVYIAKETGSRPRGNPNRDTLVAAAKELAS    not soluble
MHHHHHHAIGYVWNTLYGWVDTGTGSLAAANLTARMQPISHHLAHPDTKRRFHELVCASGQIEHLTPIAAVAATDADILRAHSAAHLENMKRVSNLPTGGDTGDGITMMGNGGLEIARLSAGGAVELTRRVATGELSAGYALVNPPGHHAPHNAAMGFCIFNNTSVAAGYARAVLGMERVAILDWDVHHGNGTQDIWWNDPSVLTISLHQHLCFPPDSGYSTERGAGNGHGYNINVPLPPGSGNAAYLHAMDQVVLPALRAYRPQLIIVGSGFDASMLDPLARMMVTADGFRQMARRTIDCAADICDGRIVFVQEGGYSPHYLPFCGLAVIEELTGVRSLPDPYHEFLAGMGGNTLLDAERAAIEEIVPLLADIR    soluble
STTALCRMNMILHNSATADIAKGGSSTLSNPLFTTENGMLKTFDYVVANPPFS    not soluble

Kindly review the next sequence as well.
Prompt: soluble on expression in E. coli for SLQCLRFPGLALPHTRAPSPLGPTRDPVATFLETCREPGSQPAGPASLRAEYLPPSVASIKVSAELLRAALKDGHSGVPLCCATLQWLLAENAAVDVVRARALSSIQGVAPDGANVHLIVREVAMTDLCPAGPIQAVEIQVESSSLADICRAHHAVVGRMQTMVTEQAAQGSSAPDLRVQYLRQIHANHETLLREVQTLRDRLCTEDEASSCATAQRLLQVYRQLRHPSLILL ?
Response: soluble

* * *

assay: soluble on expression in E. coli; label from the status in PepcDB or PDB records
measurementLabel: soluble on expression in E. coli

MTETTENVVITIPDKTSFTFHEAATSPSEGEEFVVGHFRELTVKISGSSTSREIKFYAVDENGEKTALSGTNKTDFQLGSSTLNTNEYWDFDIAGLFKVMFEVVSVTGDVTVKGIVVSLEHHHHHH    soluble
MGQDRGFGFPTQRLCSLSSLALSHLGKQDLNLVSKTCGDTTDMFSTRGSYQVSTQVSQSYFDGYCGWVHGSSHLQQQFLPPQNQCMKQVPLQVDGVISKAEEQCSQKRFLVFDQSGDQTTLLLASDIRKSFETLKQHACPDMKEELQRSNKDLFVCHGMQGNSEPDLKEDSEELNALLYSEDESGYCSEEDEVTSADHSPSIVVSGREDQKTFLGSYGQPLNAKKRKILETSNESMRDAESSCGSCDNTRISFLKRSKLSSNKIGEEKIFETVSLLRSVVPGEELVDPILVIDRAIDYLKSLKMEAKNREA    soluble
SLKIAIVRLSALGDIIQSAVVLQFIKNFKKDIEIHWFVDEKFEGILKNHPLINKLYALPLKDKKILKSLKILLKARKNNYNAVIDLQGLIKSAIVSRILSRNNFGFDKNSLKESFAHNFYNQKLELDYNENVFVRYLSLTSFMLNTDFNVKNLAFKQDIFSVDENLKQLLNNKLKLDKNEKNILIHVGSSVENKIYPKTKLAILCKLLINEFQQTKIWLAWGNVKEYEFAKEVLNLSGIDETHIELAPKFNLEELMAFTKMMNLIIGNDSGPTHLAFALNKASITIFGATPSYRNAFQTHINKIIDAGKKIQNAKHIDKSDFCITRIEEEDIFKLAKGLLN    soluble
MAHHHHHHMSLVASQEGLTDLVPCNDQCGGDYTLYTFGQSEKEVTITAPLAPGTRGKSLRVDIKVRHLQIEVPGKGTILAGELYKPINVDDSTWCIQDGKELVVVLTKTNIEYEEWWPHVVIGERQIDLKTLKPPSIRFSDLDGGAQATVAKMMHEQHEKRTDPAFTNA    soluble
